Would you kindly list inhibition for each of these compounds?
Test system: Botulinum neurotoxin type F light chain protease (Clostridium botulinum)
Assay: Botulinum neurotoxin type F light chain protease inhibition, multiplex microsphere flow cytometry, validation set (AID 588459)
Conditions: multiplex microsphere protease substrate cleavage assay, at 10 µM, hits give high values
Just the number please, in %, no unit attached.

Specify measured inhibition for CC(=O)C1=C(C)OC(N)=C(C(=O)OC(C)C)C12C(=O)Nc1ccccc12 (stereo not drawn) .
-2.3

Let me know recorded inhibition for COc1ccc(CCN(C)CC(=O)Nc2cc(C)nc3ccccc23)cc1OC , thanks.
0.4

Output measured inhibition for this item: COc1cccc(CC2CC(=O)N(c3ccc4c(C)cc(=O)oc4c3)C2=O)c1 (stereo not drawn)
3.1

Supply reported inhibition belonging to this compound: CSc1ccc(CN2CCN(CCC(C)C)C(CCO)C2)cc1 (stereo not drawn)
2.2

Annotate the compound COc1ccc(/C=C2\CCn3c2nc2cc(C(=O)O)ccc2c3=O)cc1OC with its measured inhibition.
1.4

Query inhibition for COc1ccc(-c2cc(=O)oc3cc(OC(C)C(=O)O)ccc23)cc1 (stereo not drawn)
0.9

Answer with the recorded inhibition of Cc1ccc2[nH]c3c(c2c1)CCNC3=O only.
-0.6

Answer with the recorded inhibition for the compound listed here: CCC(C)NCCOc1ccc(C(C)(C)c2ccccc2)cc1 (stereo not drawn)
-2

For the compound COc1cc(C2Nc3ccccc3C(=O)N2c2ccccc2)ccc1O (stereo not drawn) , report inhibition.
0.9

Check the records and state inhibition for O=C(NCCC(c1ccccc1)c1ccco1)c1cccs1 (stereo not drawn)
3.1

Look up and report measured inhibition for this entry: CN1CCN(C2=Nc3ccccc3Oc3ccc(Cl)cc32)CC1
-0.8

Return inhibition for the following compound: O=C(Cc1ccccc1[N+](=O)[O-])NCc1ccncc1
-3.6

Item COC(=O)c1cc(OC)c(OC)c(OC)c1[N+](=O)[O-] : provide inhibition
1.9

Read off the recorded inhibition for COc1ccccc1C(=O)N=C1NC(=O)CC2C(=O)NCCN12 (stereo not drawn)
-2.8

Fill in inhibition for record O=Cc1cn(Cc2ccc(F)cc2)c2ccccc12
8.3

State its inhibition for this compound: CCCC(=O)OCC[N+](C)(C)C
-3.8

Identify measured inhibition corresponding to COc1cc2c3cc1Oc1cc(ccc1O)C[C@@H]1c4c(cc(OC)c(O)c4Oc4ccc(cc4)C[C@H]3N(C)CC2)CCN1C
-3.1

Give recorded inhibition. COc1cc(OC)c2c(C)c(Cl)c(=O)oc2c1
1.9

Give the reported inhibition for this compound. c1ccc(SSc2ccccc2)cc1
0.3

Specify measured inhibition for Cc1ccc(CN2CCN(Cc3cn[nH]c3C3CCCCC3)CC2CCO)cc1 (stereo not drawn) .
-1.3

Find the measured inhibition of CC1=NS(=O)(=O)c2cc(Cl)ccc2N1 and report it.
1.4

Please give the documented inhibition of CC(=O)[C@H]1CC[C@H]2[C@@H]3CCC4=CC(=O)CC[C@]4(C)[C@H]3CC[C@]12C
2.7

Give reported inhibition value for CC(C)CC1c2[nH]c3ccccc3c2CCN1C(=O)CCC(=O)N(C)C (stereo not drawn)
1.9

Look up and state reported inhibition for CC(=O)OC1c2c(ccc3ccc(=O)oc23)OC(C)(C)C1OC(=O)CC(C)C (stereo not drawn)
-0.2

Report inhibition, nothing else, for this compound: C[C@]12CC[C@@H](O)C[C@@H]1CC[C@@H]1[C@@H]2CC[C@]2(C)[C@@H](O)CC[C@@H]12
1.2

For the compound COCc1cc(=O)[nH]c(/N=C(\N)Nc2ccc(Oc3ccccc3)cc2)n1 , give its measured inhibition value.
3.4

Entry Cc1ccc2c(c1)C1CN(C)CCC1N2C(=O)Nc1cccc(Cl)c1 (stereo not drawn) needs its inhibition filled in; supply it.
-0.9

Complete the entry with inhibition for CC(C)N(C(=O)Cc1ccccc1[N+](=O)[O-])C(C)C
-0.6

Provide inhibition value for the following compound: OC(COCc1ccccc1)CN1CCN(Cc2ccc3c(c2)OCO3)CC1 (stereo not drawn)
0.6

Please report the measured inhibition for Cc1c(CCOC(=O)CC23CC4CC(CC(C)(C4)C2)C3)sc[n+]1Cc1ccc([N+](=O)[O-])cc1
-3.1

Assign inhibition to the following record: CC(=O)[C@@]1(O)CC[C@H]2[C@@H]3C[C@H](C)C4=CC(=O)C=C[C@]4(C)[C@@]3(F)[C@@H](O)C[C@@]21C
-1.5

Respond only with inhibition recorded for O=C1CCCN1CCCn1cnc2c([nH]c3ccc(F)cc32)c1=O
0

Using the record for O=C(NCCc1ccccc1)C1CCN(C2CCN(Cc3ccco3)CC2)CC1 , state its measured inhibition.
-0.8

Provide one value: measured inhibition of NS(=O)(=O)c1cc2c(cc1Cl)NC(C(Cl)Cl)NS2(=O)=O (stereo not drawn)
-0.3

Indicate its recorded inhibition; the compound in question is O=C(/C=C/c1ccc2c(c1)OCO2)NCc1ccc(F)cc1
-14.5

Tell us which inhibition value is on record for CN(C)CCN(Cc1cccs1)c1ccccn1
2.5

Read off the recorded inhibition for C[N+]1(C)CCOC(O)(c2ccc(-c3ccc(C4(O)C[N+](C)(C)CCO4)cc3)cc2)C1 (stereo not drawn)
1.7

Input CC(=O)N1CCN2C(=O)C1CCCC(=O)c1cc(C(C)C)ccc12 (stereo not drawn) , output reported inhibition.
-1.6

Quickly give me recorded inhibition for CCCCC[C@H](O)/C=C/[C@@H]1[C@@H](C/C=C\CCCC(=O)OC)[C@@H](O)C[C@H]1O
-3.3

Give the reported value of inhibition for this record: COc1cc(OC)c(-c2nc3cnccc3n2C)cc1OC
-2.3

Read the entry COc1cc(/C=C2\C(=O)NC(=O)N(c3ccccc3)C2=O)c([N+](=O)[O-])cc1OC and write its reported inhibition.
-4.1

Please list inhibition recorded for the compound Cc1cc2c(C(C)C)c(O)c(O)c(C=O)c2c(O)c1-c1c(C)cc2c(C(C)C)c(O)c(O)c(C=O)c2c1O
2.6

Tell us which inhibition value is on record for COc1ccc(NC(=O)CC(c2ccccc2)c2ccco2)cc1 (stereo not drawn)
2.3
